System: human embryo lung (MRC-5) cells
protocol_summary: Cytotoxicity (CC50 or MTC) in uninfected MRC-5 cells
study_conditions: unit not given
Entries and their Activity on Rhinovirus Type 1A MTC

// worked examples, Activity on Rhinovirus Type 1A MTC included
# compound, experimental_readout, reported
rows = [
    ("C=CCON=Cc1cccc(OCCN2CCN(c3ccc(Cl)nn3)CC2)c1 [Compound 77]", "Activity on Rhinovirus Type 1A MTC", ">1"),
    ("C=CCON=Cc1cc(C)c(OCCCc2cc(C)no2)c(C)c1 [Compound 23]", "Activity on Rhinovirus Type 1A MTC", ">50"),
    ("CCON=Cc1cc(C)c(OCCCCCCCc2cc(C)no2)c(C)c1 [Compound 121]", "Activity on Rhinovirus Type 1A MTC", ">1"),
]

Given CCON=Cc1cccc(OCCCC2CCN(c3ccc(Cl)nn3)CC2)c1 [Compound 92] , state its recorded Activity on Rhinovirus Type 1A MTC.
>1

Same thing, different compound: C=CCON=Cc1ccc(OCCC2CCN(c3ccc(OC)nn3)CC2)cc1 [Compound 63]
>1

---

protocol_summary: in vitro
study_conditions: human
Entries and their CC50

# compound, reported
rows = [
    ("CCO/N=C/c1ccc(OCCC2CCN(c3ccc(Cl)nn3)CC2)cc1 [Compound 1]", "> 1 µg/mL"),
]

--- query ---
Given CCOC(=O)c1ccc(OCCC2CCN(c3ccc(C)nn3)CC2)cc1 [Pirodavir] , state its recorded CC50.
> 1 µg/mL

---

System: human embryo lung (MRC-5) cells
protocol_summary: Cytotoxicity (CC50 or MTC) in uninfected MRC-5 cells
study_conditions: unit not given
experimental_readout: Activity on Rhinovirus Type 1A MTC

# molecule, Activity on Rhinovirus Type 1A MTC
measured = [
    ("CON=Cc1cccc(OCCN2CCN(c3ccc(C)nn3)CC2)c1", ">1"),
]

Given CCON=C(CC)c1ccc(OCCC2CCN(c3ccc(Cl)nn3)CC2)cc1 , state its recorded Activity on Rhinovirus Type 1A MTC.
>1

Same thing, different molecule: CON=Cc1ccc(OCCC2CCCN(c3ccc(Cl)nn3)C2)cc1 (stereo not shown)
>1

Same thing, different molecule: CCON=Cc1ccc(OCCC2CCN(c3ccc(Cl)nn3)CC2)c([N+](=O)[O-])c1
0.89

Same thing, different molecule: CCON=Cc1cccc(OCCCC2CCN(c3ccc(C)nn3)CC2)c1
>1

Same thing, different molecule: CCO/N=C/c1ccc(OCCC2CCN(c3cnc4cc(Cl)ccc4n3)CC2)cc1
>10

Same thing, different molecule: C=CCON=Cc1cc(O)cc(OCCC2CCN(c3ccc(Cl)nn3)CC2)c1
>1

---

For human embryo lung (MRC-5) cells, measured Activity on Rhinovirus Type 1A MTC is reported for the entries below.

# compound, Activity on Rhinovirus Type 1A MTC
records = [
    ("CCOC(=O)c1ccc(OCCC2CCN(c3ccc(C)nn3)CC2)cc1 [Pirodavir]", ">10.00"),
    ("CC(C)S(=O)(=O)n1c(N)nc2ccc(/C(=N/O)c3ccccc3)cc21 [Enviroxime]", 0.49),
    ("CCON=Cc1ccc(OCCC2CCN(c3ccc(C=O)nn3)CC2)cc1 [Compound 128]", ">1"),
]

--- query ---
Given CCO/N=C/c1cc(C)c(OCCCc2cc(-c3ccccc3)no2)c(C)c1 [Compound 127] , state its recorded Activity on Rhinovirus Type 1A MTC.
>1
